Read-out: Cellular tumor antigen p53 (Homo sapiens)
assay.details: LTEA_HepaRG_TP53: Life Technologies and Expression Analysis (LTEA) Assay for Tumor Protein P53 (TP53) using HepaRG (AID 2283537)
test.parameters: mRNA level, 48 h; actives raise or lower the signal
The source made the active and inactive calls. How the source made its calls: active means hit-call score of the fitted dose curve at least 0.9, where 1 is the maximum; inactive means score below 0.9.
Outcomes: Yes (active), No (inactive)

molecule=Nc1ccc2ccccc2c1 assigned_label=No
molecule=CCOc1ccc(C(C)(C)COCc2cccc(Oc3ccccc3)c2)cc1 assigned_label=No
molecule=O=P(Oc1ccccc1)(Oc1ccccc1)Oc1ccccc1 assigned_label=Yes
molecule="CC(Cc1ccc(OCC(=O)O)cc1)NCC(O)c1csc(C(F)(F)F)n1 (stereo not drawn)" assigned_label=No
molecule=Cc1ccc(N)cc1N assigned_label=No
molecule="CCC1(c2ccccc2)C(=O)N=C(O)NC1=O (stereo not drawn)" assigned_label=No
molecule=CC(C)(C)OOC(C)(C)C assigned_label=No
molecule=c1nc[nH]n1 assigned_label=No

###

assay.details: CCTE_Padilla_ZF_Score.General: CCTE's 144 Hour Post-fertilization zebrafish Assay Score for General Malformation, Padilla Lab (AID 2284411)
Calls of active or inactive are those of the source. Rule for the calls: active = hit-call score of the fitted dose curve at least 0.9, where 1 is the maximum; inactive = score below 0.9.
measured.quantity: AC50

compound="O=C(O)C(F)(OC(F)(F)C(F)(F)C(F)(F)F)C(F)(F)F (stereo not drawn)" result=inactive
compound=NC(=O)C(F)(F)C(F)(F)F result=inactive
compound="FC(F)(F)C(F)(C(F)(F)F)C(F)(F)C(F)(F)CC1CO1 (stereo not drawn)" result=inactive
compound="O=P(OCC(Br)CBr)(OCC(Br)CBr)OCC(Br)CBr (stereo not drawn)" result="2.01 µM (active)"
compound=CC(C)Nc1ccc(Nc2ccccc2)cc1 result="2.6 µM (active)"
compound="COC(=O)C(F)(F)C(F)(F)OC(F)(C(F)(F)F)C(F)(F)OC(F)=C(F)F (stereo not drawn)" result=inactive
compound=CCOP(=S)(OCC)SCSc1ccc(Cl)cc1 result="8.15 µM (active)"
compound=OCC(F)(F)OC(F)(F)C(F)(F)OC(F)(F)CO result=inactive
compound=N#Cc1c(-c2ccc(Cl)cc2)[nH]c(C(F)(F)F)c1Br result=inactive
compound=O=C(O)C(F)(F)C(F)(F)C(=O)O result=inactive
compound="CC(O)C(F)(F)C(F)(F)F (stereo not drawn)" result=inactive
compound=O=C(O)C(F)(F)OC(F)(F)C(F)(F)OC(F)(F)C(=O)O result=inactive
compound=OCC(F)(F)OC(F)(F)C(F)(F)OC(F)(F)C(F)(F)OC(F)(F)CO result=inactive
compound=CC(C)(C)c1ccccc1OP(=O)(Oc1ccccc1)Oc1ccccc1 result="8.75 µM (active)"
compound=O=C(O)C=CC(F)(C(F)(F)F)C(F)(F)F result=inactive
compound=OCC(F)(F)OC(F)(F)C(F)(F)OC(F)(F)C(F)(F)OC(F)(F)F result="16.2 µM (active)"
compound=C=CC(=O)OCC(F)(F)C(F)F result="7.91 µM (active)"
compound=Nc1ccc([N+](=O)[O-])cc1Cl result=inactive

###

target.or.system: Hypoxia-inducible factor 1-alpha (Homo sapiens)
assay.details: ATG_HIF1a_CIS: Attagene CIS-FACTORIAL HepG2 Assay for human Hypoxia Inducible Factor 1 (HIF1A) (AID 2282951)
test.parameters: HepG2 Attagene cis-factorial HIF1a reporter transcription; actives raise or lower the signal
Calls of active or inactive are those of the source. Rule for the calls: active = hit-call score of the fitted dose curve at least 0.9, where 1 is the maximum; inactive = score below 0.9.
Labels: active, inactive

molecule=C/C(=N\NC(=O)Nc1cc(F)cc(F)c1)c1ncccc1C(=O)O assigned_label=inactive
molecule=CC(C)Nc1ccc(Nc2ccccc2)cc1 assigned_label=inactive
molecule=COP(N)(=S)OC assigned_label=inactive
molecule=CNC(=O)Oc1ccc(N(C)C)c(C)c1 assigned_label=inactive
molecule=N#C/C=C/c1ccccc1 assigned_label=inactive
molecule="O=P(OCC(Br)CBr)(OCC(Br)CBr)OCC(Br)CBr (stereo unspecified)" assigned_label=active
molecule=N#Cc1c(-c2ccc(Cl)cc2)[nH]c(C(F)(F)F)c1Br assigned_label=inactive
molecule=Cc1ccc2c(c1N)C(=O)c1ccccc1C2=O assigned_label=inactive
molecule=Oc1ccccc1Br assigned_label=inactive
molecule=Clc1ccc(Oc2ccccc2)cc1 assigned_label=inactive
molecule=Cc1ccc(N)cc1N assigned_label=inactive
molecule=ClC(Cl)(Cl)c1ccccc1 assigned_label=inactive
molecule=Cc1c([N+](=O)[O-])cc2c(c1[N+](=O)[O-])C(C)(C)CC2(C)C assigned_label=inactive
molecule=O=c1ssc(Cl)c1Cl assigned_label=inactive
molecule=CC(Cl)(Cl)C(=O)O assigned_label=inactive
molecule="CCC1(c2ccccc2)C(=O)N=C(O)NC1=O (stereo unspecified)" assigned_label=inactive
molecule=ClC(Cl)c1ccccc1 assigned_label=inactive
molecule=O=[N+]([O-])c1ccccc1 assigned_label=inactive
molecule=CCNc1nc(Cl)nc(NC(C)(C)C)n1 assigned_label=inactive
molecule=CCCCc1ccc(O)cc1 assigned_label=active
molecule=Nc1ccc2ccccc2c1 assigned_label=inactive
molecule=c1cc2c3c(cccc3c1)CC2 assigned_label=inactive
molecule=Cc1ccc([N+](=O)[O-])cc1C assigned_label=inactive
molecule="CC(Cl)CN(C)C (stereo unspecified)" assigned_label=inactive
molecule=CC1(C)CN=C(NN=C(/C=C/c2ccc(C(F)(F)F)cc2)/C=C/c2ccc(C(F)(F)F)cc2)NC1 assigned_label=inactive
molecule="OCC1CO1 (stereo unspecified)" assigned_label=inactive
molecule=Nc1ccc(Sc2ccc(N)cc2)cc1 assigned_label=active
molecule="CC(O)C(F)(F)C(F)(F)F (stereo unspecified)" assigned_label=inactive
molecule=O=NN1CCCC1 assigned_label=inactive
molecule=c1ccc2c(c1)sc1ccccc12 assigned_label=inactive
molecule=O=C(O)C(F)(F)OC(F)(F)C(F)(F)OC(F)(F)F assigned_label=inactive
